Source of measurements: patent US6169181A

Give PROTEASE % INHIB. for every item shown.
biological target: HIV-1 protease (Human immunodeficiency virus type 1 group M subtype B, UniProt P04585); assay: biochemical; conditions: Table II; enzyme HIV-1; DOSE 10.000 (unit not given)
Give just the number in %; leave the unit off.

**Q:** Which measured PROTEASE % INHIB. value corresponds to CC(C)CC1(CC(C)C)CC(O)=C(C(c2cccc(NS(=O)(=O)c3cn(C)cn3)c2)C(C)(C)C)C(=O)O1 (racemic) [Example 305] ?
**A:** 102.01

**Q:** Given the entry CCCC1(CCC)CC(O)=C(C(CC)c2cccc(NS(=O)(=O)c3ccc(C(F)(F)F)cn3)c2)C(=O)O1 (stereo not shown) [Example 280] , report its measured PROTEASE % INHIB..
**A:** 78.64

**Q:** Value lookup for PROTEASE % INHIB.; key = CCC[C@@]1(CCc2ccc(F)cc2)CC(O)=C([C@@H](c2cccc(NS(=O)(=O)c3ccc(N)cn3)c2)C(C)(C)C)C(=O)O1 (single isomer, unassigned) [Example 316]
**A:** 99.71

**Q:** // PROTEASE % INHIB. lookup, key: CCC(C1=C(O)CC(CCc2ccccc2)(CCc2ccccc2)OC1=O)c1cccc(NS(=O)(=O)c2ccc(C#N)cn2)c1 (stereo not shown) [Example 331]
**A:** 103.28

###

molecular target: HIV-1 protease (Human immunodeficiency virus type 1 group M subtype B); test: biochemical; settings: read-out: Protease % Inhib
Would you kindly list inhibition at 3.3 µM for each of these molecules?
Record the value in %, omitting the unit from your answer.

**Q:** Query: inhibition at 3.3 µM; subject: COCCOCCOCCOc1ccc2c(O)c(C(c3cccc(NS(=O)(=O)c4ccccn4)c3)C3CC3)c(=O)oc2c1 (centres unmarked)
**A:** 97.6

**Q:** # lookup: inhibition at 3.3 µM of COCCOCCOCCOc1ccc2c(O)c(C(c3cccc(NS(=O)(=O)c4cn(C)cn4)c3)C3CC3)c(=O)oc2c1 (centres unmarked)
**A:** 119

**Q:** I'd like to know its inhibition at 3.3 µM. The molecule in question is CCCC1(CCc2ccccc2)CC(O)=C(C(c2cccc(NS(=O)(=O)c3ccc(C#N)cn3)c2)C(C)(C)C)C(=O)O1 (centres unmarked)
**A:** 94.5

**Q:** Name the recorded inhibition at 3.3 µM for COc1ccc2c(O)c(C(c3cccc(NS(=O)(=O)c4cn(C)cn4)c3)C3CC3)c(=O)oc2c1 (centres unmarked) .
**A:** 94.4

**Q:** Suppose we examine the molecule Cn1cnc(S(=O)(=O)Nc2cccc(C(c3c(O)cc(C(CC4CC4)CC4CC4)oc3=O)C3CC3)c2)c1 (centres unmarked) ; what inhibition at 3.3 µM value has been reported?
**A:** 107

###

biological target: HIV-1 protease (Human immunodeficiency virus type 1 group M subtype B); test: biochemical; conditions: Table I; Dose 0.370 μM; read-out: Protease % Inhib
For each of the compounds below, state its inhibition at 0.37 µM.
Give just the numeric value; % need not be written.

**Q:** Entry CCCC1(CCc2ccccc2)CC(O)=C(C(c2cccc(NS(=O)(=O)c3ccc(F)cc3)c2)C2CC2)C(=O)O1 (stereo not shown) has what inhibition at 0.37 µM?
**A:** 90.5

**Q:** # get_value(readout='inhibition at 0.37 µM', item= CCC(CCN=[N+]=[N-])c1cc(O)c(C(c2cccc(NS(=O)(=O)c3cn(C)cn3)c2)C2CC2)c(=O)o1 (stereo not shown) )
**A:** 99.3

**Q:** Param item = CCCC1(CCC)CC(O)=C(C(c2cccc(NS(=O)(=O)c3ccc(C#N)cc3)c2)C2CC2)C(=O)O1 (stereo not shown) ; retrieve measured inhibition at 0.37 µM.
**A:** 108

**Q:** Recorded inhibition at 0.37 µM for O=C(O)c1ccc(S(=O)(=O)Cc2cccc(C(c3c(O)c4c(oc3=O)CCCCCC4)C3CC3)c2)cc1 (stereo not shown) , please?
**A:** 88
